# assay name: blockers of ER-stress CHOP reporter expression – cell-based, unfolded protein response, luciferase reporter, primary screen (AID 2732)
# cond: CHO-K1 CHOP-promoter luciferase, tunicamycin-induced, 15-18 h; at 10 µM; active compounds read high
The campaign covered roughly 220,000 compounds. About 8,200 (3.7%) were called active. The sample as a whole holds a higher share of actives than the screen did.
Everything with inhibition lower than 20% is rule not met; everything else, including exactly 20%, is rule met.

Inquiry: Answer whether inhibition of CCOC(=O)N1CCN(c2c(NCCN3CCN(c4ccccc4F)CC3)c(=O)c2=O)CC1 is greater than or equal to 20%.
Reply text: rule not met

Inquiry: Determine whether this compound has inhibition no lower than 20%: O=S(=O)(NCCc1csc(-c2ccccc2)n1)c1cccnc1
Reply text: rule not met

Inquiry: Decide: inhibition of O=C(O)CSCC(=O)Nc1cccc(C(F)(F)F)c1 >= 20%?
Reply text: rule not met

Inquiry: Hi team, for Cc1cccc(-n2c(N)c(C(=O)N3CCN(C)CC3)sc2=S)c1 , is the recorded inhibition at or above 20%?
Reply text: rule not met

Inquiry: inhibition >= 20% for CCN(CC)CC(=O)c1c[nH]c2ccc(OC)cc12 ?
Reply text: rule not met

Inquiry: Item Cn1nc(C(F)(F)F)c(C(=O)Nc2cccc(C(F)(F)F)c2)c1SCc1ccc(Cl)cc1 with inhibition of 20% or above?
Reply text: rule met

Inquiry: Has COc1ccc2[nH]cc(/C=C(/C#N)S(=O)(=O)c3ccccc3)c2c1 a recorded inhibition greater than or equal to 20%?
Reply text: rule met

Inquiry: Assess whether reported inhibition for Nc1ccc2nn(-c3ccc(Cl)cc3)nc2c1 sits at 20% or higher.
Reply text: rule met

Inquiry: Has COc1ccccc1N(CC(=O)Nc1ccc(C(F)(F)F)cc1)S(C)(=O)=O a recorded inhibition greater than or equal to 20%?
Reply text: rule not met

Inquiry: Kindly determine if inhibition recorded for O=C(c1ccc(F)cc1)n1c(=S)nc2ccccn21 is above or exactly 20%.
Reply text: rule met

Inquiry: Does the reported inhibition for CC(=O)Nc1ccc(/C(C)=N/NC(=O)CN(c2ccccc2Br)S(C)(=O)=O)cc1 fall at or above the 20% mark?
Reply text: rule met

Inquiry: Record O=C(Nc1cccc(C(F)(F)F)c1)c1cnccn1 ; criterion: inhibition no lower than 20%. Met?
Reply text: rule not met

Inquiry: Hi team, for CCCNc1c(N)c(=O)c1=O , is the recorded inhibition at or above 20%?
Reply text: rule not met

Inquiry: Item Cc1ccc(NC(=O)c2nc[nH]c2C(=O)N[C@@H](CCCCNC(=O)OC(C)(C)C)C(=O)OC(C)(C)C)cc1 with inhibition of 20% or above?
Reply text: rule met

Inquiry: Can O=S(=O)(NC(=S)Nc1ccccc1)c1ccc(F)cc1 be said to have inhibition at or above 20%?
Reply text: rule not met

Inquiry: Answer whether inhibition of COc1ccc(CN2C(=O)C(C)S/C2=N/N=C/c2ccco2)cc1 (configuration not stated) is greater than or equal to 20%.
Reply text: rule not met

Inquiry: Given CCCc1ccc(C(=O)[C@@H]2[C@@H](C(C)=O)N3c4ccc(F)cc4C=C[C@@H]3[C@@]23C(=O)Nc2ccccc23)cc1 , state whether its inhibition is at least 20%.
Reply text: rule met

Inquiry: Please check the record COC(=O)c1cc(S(=O)(=O)N2CCC(C(N)=O)CC2)oc1C and state if its inhibition is at or above 20%.
Reply text: rule not met

Inquiry: Hello, I need to know if CCc1ccc(S(=O)(=O)Nc2ccc(C)c(NS(C)(=O)=O)c2)cc1 has measured inhibition not below 20%. Thanks!
Reply text: rule not met

Inquiry: Hi team, for COc1ccc(NS(=O)(=O)c2ccc(Oc3c(C#N)cccc3C#N)cc2)cc1 , is the recorded inhibition at or above 20%?
Reply text: rule met

Inquiry: Reported inhibition reaches at least 20% for CCCc1nc(-c2ccccc2O)n(-c2ccccc2)n1 ?
Reply text: rule met

Inquiry: Quick check, inhibition >= 20%? CCc1cc(Br)ccc1NC(=O)C1CCCO1 (configuration not stated)
Reply text: rule not met
